test: RPL19A-GFP modulators, yeast TOR pathway, confirmation, cell-based, S. cerevisiae, flow cytometry, cherry picks, mother/daughter gates (AID 2270); settings: S. cerevisiae RPL19A-GFP strain, 3 h, measured here: daughter cell gate, at 10 µM, stronger effect = lower value, 100 = same GFP as DMSO wells
Attribute measured: GFP response vs DMSO (%)
Reply with just the number (in %).

A selection of reference data follows.
> print(dat)
                                   compound    attribute.measured  reported.value
1    Cc1ccc(/C=C2/NC(=O)N(Cc3ccccc3)C2=O)o1  GFP response vs DMSO            99.8
2  CC1CN(c2nnnn2-c2ccccc2)CC(C)O1 (stereo not drawn)  GFP response vs DMSO            99.1
3   CCc1ccc2c(c1)/C(=C/C(=O)c1cccs1)C(=O)N2  GFP response vs DMSO            94.7
4       C[n+]1ccc(/C=C/c2c[nH]c3ccccc23)cc1  GFP response vs DMSO             105
5  Cc1cc(C)n2nc(C(=O)NC(c3ccccc3)c3ccccc3)nc2n1  GFP response vs DMSO            99.9

Retrieve GFP response vs DMSO measured for Cc1ccc(S(=O)(=O)N2C3C=CC(C3)C2C(=O)O)cc1 (stereo not drawn) and print it.
97.6

For the compound "CN1CCN(/N=C/c2c3ccccc3c(Cl)c3ccccc23)CC1" , give its measured GFP response vs DMSO value.
95
